Hello, the source for this data is patent US9849130B2, in case you need it.

System: Enterococci faecium
Assay: MIC by microdilution in Mueller-Hinton broth against Enterococci faecium strains
Assay type: cell-based, Enterococcus faecium
Settings: Enterococcus faecium, E. faecium NR 31912; Mueller-Hinton broth; read-out: MIC
Consider the following compounds; for each one, report its MIC.

INPUT: Find the recorded MIC belonging to `Cc1ncc([N+](=O)[O-])n1CCO` and report it.
OUTPUT: > 32 µg/mL

INPUT: Find the recorded MIC belonging to `CC1(C)S[C@@H]2[C@H](NC(=O)[C@H](N)c3ccccc3)C(=O)N2[C@H]1C(=O)O` and report it.
OUTPUT: > 32 µg/mL

INPUT: Find the recorded MIC belonging to `NCC[C@H](O)C(=O)N[C@@H]1C[C@H](N)[C@@H](O[C@H]2O[C@H](CN)[C@@H](O)[C@H](O)[C@H]2O)[C@H](O)[C@H]1O[C@H]1O[C@H](CO)[C@@H](O)[C@H](N)[C@H]1O` and report it.
OUTPUT: > 32 µg/mL

###

System: Enterococci faecium
Assay: MIC by microdilution in Mueller-Hinton broth against Enterococci faecium strains
Type: cell-based, Enterococcus faecium
Conditions: Enterococcus faecium, E. faecium NR 31909; Mueller-Hinton broth; read-out: MIC
measured parameter: MIC

INPUT: Find the recorded MIC belonging to `Cc1ncc([N+](=O)[O-])n1CCO` and report it.
OUTPUT: > 32 mg/L

INPUT: Find the recorded MIC belonging to `NCC[C@H](O)C(=O)N[C@@H]1C[C@H](N)[C@@H](O[C@H]2O[C@H](CN)[C@@H](O)[C@H](O)[C@H]2O)[C@H](O)[C@H]1O[C@H]1O[C@H](CO)[C@@H](O)[C@H](N)[C@H]1O` and report it.
OUTPUT: > 32 mg/L

INPUT: Find the recorded MIC belonging to `CC1(C)S[C@@H]2[C@H](NC(=O)[C@H](N)c3ccccc3)C(=O)N2[C@H]1C(=O)O` and report it.
OUTPUT: > 32 mg/L
